Source: patent US11840686B2

- Tested on: human PKK mRNA
- method_notes: Dose-dependent antisense inhibition of human PKK in HepaRG cells, 0.19-5.00 uM (Example 5)
- Format: cell-based
- experimental_conditions: 4 point dose response, HepaRG cells; Table 36
Strand notation (5' to 3'): a small letter for the sugar, then the base; units joined by * are phosphorothioate-linked, units joined directly phosphodiester-linked; [ ] holds rarer units or linkages, { } end groups; capitals alone tell only the bases. e = 2'-O-(2-methoxyethyl) (MOE); [5mC] = 5-methylcytosine; d = 2'-deoxy (DNA)
Listing of recorded pIC50 by entry.
Friendly reminder that pIC50 comes from taking -log10 of the concentration in mol/L.

[
  {
    "substance": "546854 (eT*eA*eA*e[5mC]*eA*dG*dT*dA*dT*d[5mC]*dA*d[5mC]*dT*dG*dT*e[5mC]*e[5mC]*eT*eA*eT; antisense) [compound 546854]",
    "recorded_number": 6.22
  },
  {
    "substance": "546826 (eA*eG*eT*eA*eT*d[5mC]*dA*d[5mC]*dT*dG*dT*dA*d[5mC]*dT*dA*eG*eT*eT*eT*e[5mC]; antisense) [compound 546826]",
    "recorded_number": 6.15
  }
]

Prompt: Can you look up the measured pIC50 of 546753 (e[5mC]*eT*eG*eG*e[5mC]*dT*d[5mC]*dA*d[5mC]*dT*dA*dT*dA*dG*dG*e[5mC]*e[5mC]*e[5mC]*e[5mC]*eA; antisense) [compound 546753] for me?
Response: 6.30

Prompt: Can you look up the measured pIC50 of 547293 (antisense e[5mC]*eA*eT*e[5mC]*eT*dG*dG*d[5mC]*dA*dG*dT*dA*dT*dT*dG*eG*eG*e[5mC]*eA*eT) [compound 547293] for me?
Response: 6.70

Prompt: Can you look up the measured pIC50 of 546897 (eA*eG*eT*eA*eT*d[5mC]*dA*d[5mC]*dT*dG*dT*d[5mC]*d[5mC]*dT*dA*eT*eG*eT*e[5mC]*eA; antisense) [compound 546897] for me?
Response: 6.40
